- target desc: Bifunctional epoxide hydrolase 2 (Homo sapiens, UniProt P34913)
- Sequence (P34913 whole entry): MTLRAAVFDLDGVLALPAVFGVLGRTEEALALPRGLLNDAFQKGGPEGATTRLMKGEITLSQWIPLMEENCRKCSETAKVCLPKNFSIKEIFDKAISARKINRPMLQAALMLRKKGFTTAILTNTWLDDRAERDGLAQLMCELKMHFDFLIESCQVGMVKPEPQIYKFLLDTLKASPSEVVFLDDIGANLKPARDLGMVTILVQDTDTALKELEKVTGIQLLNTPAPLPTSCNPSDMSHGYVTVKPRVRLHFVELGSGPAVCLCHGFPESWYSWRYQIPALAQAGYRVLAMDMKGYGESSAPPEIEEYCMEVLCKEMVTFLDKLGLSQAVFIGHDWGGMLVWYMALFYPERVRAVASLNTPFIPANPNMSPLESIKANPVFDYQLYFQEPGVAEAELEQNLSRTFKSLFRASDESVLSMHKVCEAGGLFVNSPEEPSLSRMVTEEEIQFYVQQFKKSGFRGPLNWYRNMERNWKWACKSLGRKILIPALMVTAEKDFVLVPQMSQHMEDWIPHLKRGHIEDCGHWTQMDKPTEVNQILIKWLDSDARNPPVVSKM
- assay details: Inhibition of recombinant human sEH using PHOME as substrate preincubated for 30 mins followed by substrate addition measured for 30 mins by fluorescence photometric method
- test conditions: read-out: IC50
Could you mark each record label 1 if its IC50 falls strictly under 400 nM, and label 0 if it equals or exceeds it?

compound: C[S+]([O-])c1ccc(CNC(=O)c2ccc(C(C)(C)C)cc2)cc1 (stereo unspecified)
category label: label 1
--
compound: CC(C)(C)c1ccc(C(=O)NCc2ccc(S(C)(=O)=O)cc2)cc1
category label: label 0
--
compound: CC(C)(C)c1ccc(C(=O)NCc2ccc(C#N)cc2)cc1
category label: label 0
--
compound: CC(C)(C)c1ccc(C(=O)NCc2ccc(-c3nnn[nH]3)cc2)cc1
category label: label 0
--
compound: CC(C)(C)c1ccc(C(=O)NCc2ccc(C(N)=O)cc2)cc1
category label: label 0
--
compound: CC(C)(C)c1ccc(C(=O)NCc2ccc(CCC(=O)O)cc2)cc1
category label: label 0
--
compound: CC(=O)c1ccc(CNC(=O)c2ccc(C(C)(C)C)cc2)cc1
category label: label 1
--
compound: CC(C)(C)c1ccc(C(=O)NCc2ccc(S(N)(=O)=O)cc2)cc1
category label: label 1
--
compound: COc1ccc(CNC(=O)c2ccc(C(C)(C)C)cc2)cc1
category label: label 0
--
compound: O=C(O)c1ccc(CNC(=O)c2cccc(-c3ccccc3)c2)cc1
category label: label 0
